Test system: 885512-296-R-J2-PDC complex spheroid viability
protocol_notes: Anticancer human tumor 885512-296-R-J2-PDC patient-derived breast carcinoma cell line growth inhibition [GQUAD]
condition_notes: second compound 10 µM; first compound 1 µM; active compounds read low

- compound: "COc1ccc([C@@H](O)c2cc(-c3ncnc4cc(N5CCOCC5)ccc34)c(F)cc2Cl)nn1 + CN(C)c1ccc(Nc2c3ccc(NC(=O)CCN4CCCC4)cc3nc3cc(NC(=O)CCN4CCCC4)ccc23)cc1"
  viability, T/C [%]: 14.6
- compound: "CC1COCCN1c1cc(C2(S(C)(=N)=O)CC2)nc(-c2ccnc3[nH]ccc23)n1 (stereo not drawn) + CN(C)c1ccc(Nc2c3ccc(NC(=O)CCN4CCCC4)cc3nc3cc(NC(=O)CCN4CCCC4)ccc23)cc1"
  viability, T/C [%]: 11.7
- compound: "C=CC(=O)N1CCN(c2nc(=O)n(-c3c(C)ccnc3C(C)C)c3nc(-c4c(O)cccc4F)c(F)cc23)C(C)C1 (stereo not drawn) + Cc1cnc(CNC(=O)c2c(=O)c3ccc(N4CCCN(C)CC4)nc3n3c2sc2ccccc23)cn1"
  viability, T/C [%]: 0.2

###

Tested on: 885512-296-R-J2-PDC complex spheroid viability
protocol_notes: Anticancer human tumor 885512-296-R-J2-PDC cell line growth inhibition [GQUAD];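 further: spheroids exposed to the compounds for one week; percent of tumor spheroid viability relative to DMSO vehicle control wells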
condition_notes: second compound 3.16 µM; first compound 0.316 µM; active compounds read low
readout_type: viability, T/C (%)

- compound: "C#Cc1c(F)ccc2cc(O)cc(-c3ncc4c(N5CC6CCC(C5)N6)nc(OCC56CCCN5CC(F)C6)nc4c3F)c12 (stereo unspecified) + Cc1[nH]c2ccc(F)cc2c1-c1nc2c3cccnc3c3ncccc3c2[nH]1"
  unit_abbrev: "%"
  test_value: 4.13
- compound: "CC1COCCN1c1cc(C2(S(C)(=N)=O)CC2)nc(-c2ccnc3[nH]ccc23)n1 (stereo unspecified) + Cc1[nH]c2ccc(F)cc2c1-c1nc2c3cccnc3c3ncccc3c2[nH]1"
  unit_abbrev: "%"
  test_value: 3.19
- compound: "CC1COCCN1c1cc(C2(S(C)(=N)=O)CC2)nc(-c2ccnc3[nH]ccc23)n1 (stereo unspecified) + Cc1cnc(CNC(=O)c2c(=O)c3ccc(N4CCCN(C)CC4)nc3n3c2sc2ccccc23)cn1"
  unit_abbrev: "%"
  test_value: 17
- compound: "C=CC(=O)N1CCN(c2nc(=O)n(-c3c(C)ccnc3C(C)C)c3nc(-c4c(O)cccc4F)c(F)cc23)C(C)C1 (stereo unspecified) + Cc1[nH]c2ccc(F)cc2c1-c1nc2c3cccnc3c3ncccc3c2[nH]1"
  unit_abbrev: "%"
  test_value: 21.2
- compound: "CC(=O)O[C@H]1C(=O)[C@@]2(C)[C@H]([C@H](OC(=O)c3ccccc3)[C@]3(O)C[C@H](OC(=O)[C@H](O)[C@@H](NC(=O)c4ccccc4)c4ccccc4)C(C)=C1C3(C)C)[C@]1(OC(C)=O)CO[C@@H]1C[C@@H]2O + CN(C)c1ccc(Nc2c3ccc(NC(=O)CCN4CCCC4)cc3nc3cc(NC(=O)CCN4CCCC4)ccc23)cc1"
  unit_abbrev: "%"
  test_value: 3.71
- compound: "Cc1[nH]c2ccccc2c1CCNCc1ccc(/C=C/C(=O)NO)cc1 + CN(C)c1ccc(Nc2c3ccc(NC(=O)CCN4CCCC4)cc3nc3cc(NC(=O)CCN4CCCC4)ccc23)cc1"
  unit_abbrev: "%"
  test_value: 5.49
- compound: "COc1ncnc(C2CC2)c1-c1ncc2cnn(Cc3ccc(-c4nc(C(F)(F)F)cn4C(C)C)cc3)c2n1 + Cc1[nH]c2ccc(F)cc2c1-c1nc2c3cccnc3c3ncccc3c2[nH]1"
  unit_abbrev: "%"
  test_value: 2.87
- compound: "C#Cc1c(F)ccc2cc(O)cc(-c3ncc4c(N5CC6CCC(C5)N6)nc(OCC56CCCN5CC(F)C6)nc4c3F)c12 (stereo unspecified) + Cc1cnc(CNC(=O)c2c(=O)c3ccc(N4CCCN(C)CC4)nc3n3c2sc2ccccc23)cn1"
  unit_abbrev: "%"
  test_value: 26.4
- compound: "O=c1[nH]cc(F)c(=O)[nH]1 + CN(C)c1ccc(Nc2c3ccc(NC(=O)CCN4CCCC4)cc3nc3cc(NC(=O)CCN4CCCC4)ccc23)cc1"
  unit_abbrev: "%"
  test_value: 104
- compound: "CCCS(=O)(=O)Nc1ccc(F)c(C(=O)c2c[nH]c3ncc(-c4ccc(Cl)cc4)cc23)c1F + Cc1[nH]c2ccc(F)cc2c1-c1nc2c3cccnc3c3ncccc3c2[nH]1"
  unit_abbrev: "%"
  test_value: 1.78
- compound: "CCc1c2c(nc3ccc(O)cc13)-c1cc3c(c(=O)n1C2)COC(=O)[C@]3(O)CC + Cc1[nH]c2ccc(F)cc2c1-c1nc2c3cccnc3c3ncccc3c2[nH]1"
  unit_abbrev: "%"
  test_value: 2.07
